System: strains of human rhinovirus (HRV)
measurement notes: Antirhinoviral H1-HeLa cell culture assay (XTT cell protection, EC50), other HRV strains
Assay type: cell-based, human rhinovirus in H1-HeLa cells
run parameters: H1-HeLa, HRV-2; read-out: EC50
measure name: pEC50
Note on pEC50: it is the negative log10 of concentration, concentration in mol/L.

Prompt line: Consider the compound shown here: `Cc1cc(C(=O)Nc2cccn([C@@H](Cc3ccc(F)c(F)c3)C(=O)N[C@H](/C=C/C(=O)OC3CCCC3)C[C@@H]3CCNC3=O)c2=O)no1` What is its recorded pEC50?
Response line: 7.08

Prompt line: Consider the compound shown here: `CC[C@@H](C(=O)N[C@H](/C=C/C(=O)OC(C)(C)C)C[C@@H]1CCNC1=O)n1cccc(NC(=O)c2cc(C)on2)c1=O` What is its recorded pEC50?
Response line: 6.81

Prompt line: Consider the compound shown here: `CCOC(=O)/C=C/[C@H](C[C@@H]1CCNC1=O)NC(=O)[C@@H]1CCc2c(Cl)cc(NC(=O)c3cc(C)on3)c(=O)n21` What is its recorded pEC50?
Response line: 7.80

Prompt line: Consider the compound shown here: `Cc1cc(C(=O)Nc2cccn([C@@H](Cc3ccc(F)c(F)c3)C(=O)N[C@H](/C=C/C(=O)OC(C)C)C[C@@H]3CCNC3=O)c2=O)no1` What is its recorded pEC50?
Response line: 7.32

Prompt line: Consider the compound shown here: `Cc1cc(C(=O)Nc2cccn([C@@H](Cc3ccc(F)c(F)c3)C(=O)N[C@H](/C=C/C(=O)OC3CCC3)C[C@@H]3CCNC3=O)c2=O)no1` What is its recorded pEC50?
Response line: 7.89

Prompt line: Consider the compound shown here: `CCOC(=O)/C=C/[C@H](C[C@@H]1CCNC1=O)NC(=O)[C@@H]1CCc2ccc(NC(=O)c3cc(C)on3)c(=O)n21` What is its recorded pEC50?
Response line: 7.43

----------
Tested on: strains of human rhinovirus (HRV)
measurement notes: Antirhinoviral H1-HeLa cell culture assay (XTT cell protection, EC50), other HRV strains
Format: cell-based, human rhinovirus in H1-HeLa cells
run parameters: Human rhinovirus sp., HRV87, H1-HeLa, HRV-87; read-out: EC50
Record form. Attribute: pEC50. Fill in for each entry.
Note on pEC50: it is the negative log10 of concentration, concentration in mol/L.

Prompt line: Consider the compound shown here: `CCOC(=O)/C=C/[C@H](C[C@@H]1CCNC1=O)NC(=O)[C@H](CC)n1cccc(NC(=O)c2cc(C)on2)c1=O` What is its recorded pEC50?
Response line: 7.68

Prompt line: Consider the compound shown here: `CC[C@@H](C(=O)N[C@H](/C=C/C(=O)OC(C)(C)C)C[C@@H]1CCNC1=O)n1cccc(NC(=O)c2cc(C)on2)c1=O` What is its recorded pEC50?
Response line: 7.48

Prompt line: Consider the compound shown here: `CCOC(=O)/C=C/[C@H](C[C@@H]1CCNC1=O)NC(=O)[C@@H]1CCc2ccc(NC(=O)c3cc(C)on3)c(=O)n21` What is its recorded pEC50?
Response line: 7.24

Prompt line: Consider the compound shown here: `C#CC[C@@H](C(=O)N[C@H](/C=C/C(=O)OC1CCCC1)C[C@@H]1CCNC1=O)n1cccc(NC(=O)c2cc(C)on2)c1=O` What is its recorded pEC50?
Response line: 7.08

Prompt line: Consider the compound shown here: `CCOC(=O)/C=C/[C@H](C[C@@H]1CCNC1=O)NC(=O)[C@H](Cc1ccc(F)cc1)n1cccc(NC(=O)c2cc(C)on2)c1=O` What is its recorded pEC50?
Response line: 8.10

Prompt line: Consider the compound shown here: `CCOC(=O)/C=C/[C@H](C[C@@H]1CCNC1=O)NC(=O)[C@H](Cc1ccc(F)c(F)c1)n1cccc(NC(=O)c2cc(C)on2)c1=O` What is its recorded pEC50?
Response line: 8.30

----------
System: strains of human rhinovirus (HRV)
measurement notes: Antirhinoviral H1-HeLa cell culture assay (XTT cell protection, EC50), other HRV strains
Type: cell-based, human rhinovirus in H1-HeLa cells
run parameters: Human rhinovirus sp., HRV25, H1-HeLa, HRV-25; read-out: EC50
measure name: EC50 (nM)
Express the result in nM but write the number alone.

Prompt line: Consider the compound shown here: CCOC(=O)/C=C/[C@H](C[C@@H]1CCNC1=O)NC(=O)[C@H](Cc1ccc(F)c(F)c1)n1cccc(NC(=O)c2cc(C)on2)c1=O [Compound 33] What is its recorded EC50?
Response line: 28

Prompt line: Consider the compound shown here: Cc1cc(C(=O)Nc2cccn([C@@H](Cc3ccc(F)c(F)c3)C(=O)N[C@H](/C=C/C(=O)OC3CCCC3)C[C@@H]3CCNC3=O)c2=O)no1 [Compound 49] What is its recorded EC50?
Response line: 371

Prompt line: Consider the compound shown here: C#CC[C@@H](C(=O)N[C@H](/C=C/C(=O)OC(C)(C)C)C[C@@H]1CCNC1=O)n1cccc(NC(=O)c2cc(C)on2)c1=O [Compound 41] What is its recorded EC50?
Response line: 829

----------
Tested on: strains of human rhinovirus (HRV)
measurement notes: Antirhinoviral H1-HeLa cell culture assay (XTT cell protection, EC50), other HRV strains
Assay type: cell-based, human rhinovirus in H1-HeLa cells
run parameters: HRV-3; read-out: EC50
Method: Antirhinoviral H1-HeLa Cell Culture Assay: In this cell protection assay, the ability of compounds to protect cells against HRV infection was measured by the XTT dye reduction method, which is described in Weislow et al., J. Natl. Cancer Inst. (1989), vol. 81, 577-586. […] Two days later, XTT/PMS was added to test plates and the amount of formazan produced was quantified spectrophotometrically at 450/650 nm. […] The therapeutic index (TI) was calculated by dividing the CC50 value by the EC50 value. […]
measure name: pEC50
Note on pEC50: it is the negative log10 of concentration, concentration in mol/L.

Prompt line: Consider the molecule shown here: C#CC[C@@H](C(=O)N[C@H](/C=C/C(=O)OCC(C)(C)C)C[C@@H]1CCNC1=O)n1cccc(NC(=O)c2cc(C)on2)c1=O (relative stereo) What is its recorded pEC50?
Response line: 7.23

Prompt line: Consider the molecule shown here: CCC(C(=O)N[C@H](/C=C/C(=O)OCC(C)(C)C)C[C@@H]1CCNC1=O)n1cccc(NC(=O)c2cc(C)on2)c1=O (relative stereo) What is its recorded pEC50?
Response line: 6.82

Prompt line: Consider the molecule shown here: Cc1cc(C(=O)Nc2cccn(C(Cc3ccc(F)c(F)c3)C(=O)N[C@H](/C=C/C(=O)OCC(C)(C)C)C[C@@H]3CCNC3=O)c2=O)no1 (relative stereo) What is its recorded pEC50?
Response line: 7.74

----------
Record form. Attribute: EC50. Fill in for each entry.
Tested on: strains of human rhinovirus (HRV)
measurement notes: Antirhinoviral H1-HeLa cell culture assay (XTT cell protection, EC50), other HRV strains
Format: cell-based, human rhinovirus in H1-HeLa cells
run parameters: H1-HeLa, HRV-2; read-out: EC50
Express the result in nM but write the number alone.

Prompt line: Consider the compound shown here: Cc1cc(C(=O)Nc2cccn([C@@H](Cc3ccc(F)c(F)c3)C(=O)N[C@H](/C=C/C(=O)OC3CCCCC3)C[C@@H]3CCNC3=O)c2=O)no1 [Compound 54] What is its recorded EC50?
Response line: 148

Prompt line: Consider the compound shown here: CCOC(=O)/C=C/[C@H](C[C@@H]1CCNC1=O)NC(=O)[C@H](Cc1ccc(F)c(F)c1)n1cccc(NC(=O)c2cc(C)on2)c1=O [Compound 33] What is its recorded EC50?
Response line: 3

Prompt line: Consider the compound shown here: C#CC[C@@H](C(=O)N[C@H](/C=C(\C)C(=O)OCC)C[C@@H]1CCNC1=O)n1cccc(NC(=O)c2cc(C)on2)c1=O [Compound 44] What is its recorded EC50?
Response line: 1180

----------
measurement notes: Cytotoxicity (CC50) in uninfected MRC-5 cells, XTT dye reduction
Assay type: cell-based, human
run parameters: human, MRC-5 cells, uninfected (mock-infected); line of ECHO-6
measure name: CC50 at 4 days

Prompt line: Consider the compound shown here: C#CC[C@@H](C(=O)N[C@H](/C=C/C(=O)OCC)C[C@@H]1CCNC1=O)n1cccc(NC(=O)c2cc(C)on2)c1=O [Compound 31] What is its recorded CC50 at 4 days?
Response line: > 10 µM

----------
Tested on: strains of human rhinovirus (HRV)
measurement notes: Antirhinoviral H1-HeLa cell culture assay (XTT cell protection, EC50), other HRV strains
Type: cell-based, human rhinovirus in H1-HeLa cells
run parameters: H1-HeLa, HRV-2; read-out: EC50
measure name: pEC50
Note on pEC50: it is the negative log10 of concentration, concentration in mol/L.

Prompt line: Consider the compound shown here: `C#CC[C@@H](C(=O)N[C@H](/C=C/C(=O)OC(C)(C)C)C[C@@H]1CCNC1=O)n1cccc(NC(=O)c2cc(C)on2)c1=O` What is its recorded pEC50?
Response line: 6.81

Prompt line: Consider the compound shown here: `C#CC[C@@H](C(=O)N[C@H](/C=C/C(=O)OCc1ccccc1)C[C@@H]1CCNC1=O)n1cccc(NC(=O)c2cc(C)on2)c1=O` What is its recorded pEC50?
Response line: 7.62

Prompt line: Consider the compound shown here: `C#CC[C@@H](C(=O)N[C@H](/C=C/C(=O)OCC)C[C@@H]1CCNC1=O)n1cccc(NC(=O)c2cc(C)on2)c1=O` What is its recorded pEC50?
Response line: 7.89

Prompt line: Consider the compound shown here: `C#CC[C@@H](C(=O)N[C@H](/C=C/C(=O)OC1CCC1)C[C@@H]1CCNC1=O)n1cccc(NC(=O)c2cc(C)on2)c1=O` What is its recorded pEC50?
Response line: 7.11

Prompt line: Consider the compound shown here: `Cc1cc(C(=O)Nc2cccn([C@@H](Cc3ccc(F)c(F)c3)C(=O)N[C@H](/C=C/C(=O)OC(C)(C)C)C[C@@H]3CCNC3=O)c2=O)no1` What is its recorded pEC50?
Response line: 6.84

Prompt line: Consider the compound shown here: `CC[C@@H](C(=O)N[C@H](/C=C/C(=O)OCc1ccccc1)C[C@@H]1CCNC1=O)n1cccc(NC(=O)c2cc(C)on2)c1=O` What is its recorded pEC50?
Response line: 7.35

Prompt line: Consider the compound shown here: `C#CC[C@@H](C(=O)N[C@H](/C=C/C(=O)OC1CCCC1)C[C@@H]1CCNC1=O)n1cccc(NC(=O)c2cc(C)on2)c1=O` What is its recorded pEC50?
Response line: 7.28

Prompt line: Consider the compound shown here: `CCOC(=O)/C=C/[C@H](C[C@@H]1CCNC1=O)NC(=O)[C@H](CC)n1cccc(NC(=O)c2cc(C)on2)c1=O` What is its recorded pEC50?
Response line: 7.80
